These measurements were taken from ChEMBL document CHEMBL3244119.

procedure.details: Stability of the compound assessed as rate of 3-mercaptopicolinic acid formation at 10 mg at pH 6 by DTNB method
Format: physicochemical
endpoint.name: Activity (h⁻¹)
Write the answer as a number in h⁻¹, unit excluded.

Known Activity results, listed for orientation:
O=C(Sc1cccnc1C(=O)O)c1ccc(C(F)(F)F)cc1; 0.0688
O=C(Sc1cccnc1C(=O)O)c1cccc(C(F)(F)F)c1; 0.0695
COc1ccc(C(=O)Sc2cccnc2C(=O)O)cc1; 0.0038
O=C(Sc1cccnc1C(=O)O)c1ccccc1Cl; 0.0091

**Q:** Param item = O=C(Sc1cccnc1C(=O)O)c1ccc(F)cc1 ; retrieve measured Activity.
**A:** 0.0062

**Q:** Also O=C(Sc1cccnc1C(=O)O)c1ccc([N+](=O)[O-])cc1 , if possible.
**A:** 0.147

###

System: Rattus norvegicus
procedure.details: Hypoglycemic activity in 48 hrs fasted rat assessed as reduction in glucose level at 150 mg/kg, po measured after 4 hrs
Assay type: functional
Set-up: scale not given: the % may be the effect or the level left
Known Activity of a selection of compounds
Enter your answer as a number in %; do not include the unit.

O=C(Nc1ccc(C(=O)Sc2cccnc2C(=O)O)cc1)c1ccccc1; -4

**Q:** Form field: reported Activity of CCCCCCCCCCC(=O)Sc1cccnc1C(=O)O
**A:** -9

###

procedure.details: Stability of the compound assessed as rate of 3-mercaptopicolinic acid formation at 10 mg at pH 6 by DTNB method
Assay type: physicochemical
Tag: Y if measured Activity is not below 0.009 h⁻¹, N if it is.

**Q:** Please indicate if the recorded Activity for O=C(Sc1cccnc1C(=O)O)c1ccc(Cl)cc1 meets or exceeds 0.009 h⁻¹.
**A:** Y

###

Listed below: log10(Activity) values for each entry.
procedure.details: Stability of the compound assessed as rate of 3-mercaptopicolinic acid formation at 10 mg at pH 8 by DTNB method
Type: physicochemical
Hi team, quick reminder: these entries are log10 of Activity (h⁻¹).

O=C(Sc1cccnc1C(=O)O)c1ccc(Cl)cc1; -1.06
Cc1ccc(C(=O)Sc2cccnc2C(=O)O)cc1; -1.57
COc1cccc(C(=O)Sc2cccnc2C(=O)O)c1; -1.23

**Q:** Fill in the blank: the reported log10(Activity) of O=C(Sc1cccnc1C(=O)O)c1ccc(F)cc1 is ____.
**A:** -1.24

**Q:** Now give it for COc1ccc(C(=O)Sc2cccnc2C(=O)O)cc1 too.
**A:** -1.80

**Q:** Now consider O=C(Sc1cccnc1C(=O)O)c1cccc(C(F)(F)F)c1 and answer again.
**A:** -0.75

###

procedure.details: Half life of the compound at pH 8
Assay type: physicochemical
endpoint.name: half-life (h)
Output spec: scalar in h, unitless text.

O=C(Sc1cccnc1C(=O)O)c1ccc(C(F)(F)F)cc1; 10.1
O=C(Sc1cccnc1C(=O)O)c1cccc(Cl)c1; 14.8

**Q:** Look at this compound and give its reported half-life. COc1ccc(C(=O)Sc2cccnc2C(=O)O)cc1
**A:** 182

###

System: Rattus norvegicus
procedure.details: Hypoglycemic activity in 48 hrs fasted rat assessed as reduction in glucose level at 150 mg/kg, po measured after 4 hrs
Assay type: functional
Set-up: scale not given: the % may be the effect or the level left
Measured Activity of individual entries
Respond with the bare value in %.

Take a look at these entries with their results.
COC(=O)c1ccc(C(=O)Sc2cccnc2C(=O)O)cc1; 1
CN(C)c1ccc(C(=O)Sc2cccnc2C(=O)O)cc1; -8
CC(=O)Nc1ccc(C(=O)Sc2cccnc2C(=O)O)cc1; 7
NS(=O)(=O)c1ccc(C(=O)Sc2cccnc2C(=O)O)cc1; 3
NC(=O)c1ccc(C(=O)Sc2cccnc2C(=O)O)cc1; -25
N#Cc1ccc(C(=O)Sc2cccnc2C(=O)O)cc1; 0

// switching to the query compound
**Q:** Look at this compound and give its reported Activity. O=C(O)c1ncccc1S
**A:** -56

###

procedure.details: Stability of the compound assessed as rate of 3-mercaptopicolinic acid formation at 10 mg at pH 6 by DTNB method
Type: physicochemical
endpoint.name: Activity (h⁻¹)
Only the number, expressed in h⁻¹, is required.

Example entries begin here.
O=C(Sc1cccnc1C(=O)O)c1ccccc1; 0.0115
CC(C)(C)C(=O)Sc1cccnc1C(=O)O; 0.006
COc1cccc(C(=O)Sc2cccnc2C(=O)O)c1; 0.0109
O=C(Sc1cccnc1C(=O)O)c1cccc(Cl)c1; 0.0468

# context switch: different molecule, same Activity
**Q:** Find the recorded Activity belonging to Cc1ccc(C(=O)Sc2cccnc2C(=O)O)cc1 and report it.
**A:** 0.0087
